Assay: qHTS assay to identify small molecule agonists of the estrogen receptor alpha (ER-alpha) signaling pathway in the presence of an antagonist - cell viability counter screen (AID 1259386);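 further: cells exposed to compounds for 22 h at 37 °C before the viability read; nearly all actives have a fitted effect of over 30% in size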; further: potency means the concentration at half of the fitted maximal effect
Conditions: VM7Luc4E2 viability, CellTiter-Fluor fluorescence, 22 h; series mostly up to 92.4 µM
Records with an inconclusive call do not appear. Calls of active or inactive are those of the source. The call rests on the fitted dose curve; in most records, active means well fitted cell-killing curve with a large enough effect in the repeat runs; inconclusive means weak or mixed curves, or effect the other way; inactive means no such curve, though single readings can be large or run the other way.
measurement label: Potency

• CC(C)(c1ccccc1)c1ccc(O)c(C(C)(C)c2ccccc2)c1 = 68 µM (active)
• CN(C)c1nc(=O)n(C2CCCCC2)c(=O)n1C = inactive
• C=C(C)C#N = inactive
• CC1=C(C(=O)Nc2ccccc2)SCCO1 = inactive

---

Assay: qHTS RealTime-Glo MT Cell Viability Assay in HepG2 cells - 8 hour (AID 1224873); further: nearly all actives have a fitted effect of over 55% in size
Conditions: RealTime-Glo luminescence; series mostly up to 76.8 µM
Records with an inconclusive call do not appear. The source made the active and inactive calls. Calls follow the shape of the dose curve; as a rule, active = well fitted cell-killing curve with a large enough effect in the repeat runs; inconclusive = weak or mixed curves; inactive = flat fitted curve, though single readings scatter.
measurement label: outcome

See these solved cases before continuing.
* ClC(Cl)(Cl)c1ccccc1 | inactive
* CC1CC(=O)O1 (centres undefined) | inactive
* N#Cc1cccnc1 | inactive
* O=[N+]([O-])c1ccc(Nc2ccccc2)cc1 | inactive
* ClC(Cl)(Cl)Br | inactive
* Clc1ccccc1-c1nnc(-c2ccccc2Cl)nn1 | inactive
* Brc1ccc(Br)cc1 | inactive
* CCCCOCC1CO1 (centres undefined) | inactive
* Cn1c(-c2ccccc2)cc(-c2ccccc2)[n+]1C | inactive
* CCOC(=O)c1ccccc1N | inactive

Record request: outcome value, item ClCc1ccccn1
inactive

# lookup: outcome of Oc1ccc(Cl)cc1Cl
inactive

outcome for ClC(Cl)=C(Cl)C(Cl)=C(Cl)Cl ?
inactive

Quick one: outcome for COC(=O)Nc1nc2ccccc2[nH]1 ?
inactive

---

Biological target: Androgen receptor (Homo sapiens) (UniProt P10275)
Sequence (P10275 whole entry, looked up): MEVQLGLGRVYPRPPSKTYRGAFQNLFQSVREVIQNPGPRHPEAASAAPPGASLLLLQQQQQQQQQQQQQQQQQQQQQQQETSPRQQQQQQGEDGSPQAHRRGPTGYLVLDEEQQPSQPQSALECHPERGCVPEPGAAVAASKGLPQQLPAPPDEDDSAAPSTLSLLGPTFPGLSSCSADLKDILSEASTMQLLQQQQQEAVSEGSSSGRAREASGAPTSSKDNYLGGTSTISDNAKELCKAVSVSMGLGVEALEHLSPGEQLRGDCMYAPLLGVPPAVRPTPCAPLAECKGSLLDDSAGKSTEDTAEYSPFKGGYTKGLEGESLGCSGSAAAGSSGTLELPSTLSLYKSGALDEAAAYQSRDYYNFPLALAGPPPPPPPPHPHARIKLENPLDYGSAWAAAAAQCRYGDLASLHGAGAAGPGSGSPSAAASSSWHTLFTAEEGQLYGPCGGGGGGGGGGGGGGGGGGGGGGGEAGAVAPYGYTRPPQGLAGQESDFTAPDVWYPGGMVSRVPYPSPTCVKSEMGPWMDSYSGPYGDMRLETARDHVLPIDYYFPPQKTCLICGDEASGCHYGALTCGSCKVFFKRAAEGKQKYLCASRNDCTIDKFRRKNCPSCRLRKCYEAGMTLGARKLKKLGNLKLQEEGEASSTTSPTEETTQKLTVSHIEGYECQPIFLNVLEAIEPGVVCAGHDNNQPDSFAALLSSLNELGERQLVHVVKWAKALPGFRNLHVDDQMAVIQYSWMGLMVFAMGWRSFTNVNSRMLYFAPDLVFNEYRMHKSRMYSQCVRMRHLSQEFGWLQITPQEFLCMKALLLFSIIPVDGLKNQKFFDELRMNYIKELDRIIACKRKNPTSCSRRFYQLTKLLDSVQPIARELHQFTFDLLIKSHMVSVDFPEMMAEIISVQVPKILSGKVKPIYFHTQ
Test: qHTS assay to identify small molecule agonists of the androgen receptor (AR) signaling pathway using the MDA cell line (AID 743040; further: nearly all actives have a fitted effect of over 20% in size)
Details: MDA-kb2 AR-luc cells, MMTV luciferase, 16 h; at 70.3 µM (top of the series); active compounds read high
Threshold rule: activity change greater than or equal to -10% is satisfied; below that, not satisfied.

• C=CC(=O)OCC(CC)(COC(=O)C=C)COC(=O)C=C = not satisfied
• CCOP(=S)(OCC)OP(=S)(OCC)OCC = satisfied

Decide: activity change of O=[N+]([O-])c1ccc(Cl)c([N+](=O)[O-])c1 >= -10%?
not satisfied

activity change >= -10% for CNC(=O)Oc1cccc2c1OC(C)(C)C2 ?
satisfied

---

Experiment: qHTS assay to identify small molecule antagonists of the retinoic acid receptor (RAR) signaling pathway (AID 1159552; further: nearly all actives have a fitted effect of over 50% in size)
Settings: C3RL4 RARE luciferase reporter, retinol-stimulated, 6 h; series mostly up to 92.4 µM
Text: National Center for Advancing Translational Sciences [NCATS] NIH Chemical Genomics Center [NCGC] U.S. Environmental Protection Agency [EPA] National Institutes of Environmental Health Sciences [NIEHS] National Toxicology Program [NTP] U.S. Food and Drug Administration [FDA] […]
Inconclusive results are not listed. Activity calls are given as the source filed them. Calls follow the shape of the dose curve; as a rule, active = well fitted inhibition curve with a large enough effect in the repeat runs; inconclusive = weak or mixed curves, or effect the other way; inactive = no such curve, though single readings can be large or run the other way.
Your reply should match one of these outcome classes. active, inactive

Example entries and their recorded answers appear below.
• ClCC(Cl)CCl = inactive
• Nc1ccc2ccccc2c1 = inactive
• [CH3][Sn]([Cl])([Cl])[Cl] = inactive

Recorded test outcome, item C=CC(Cl)CCl (stereo not given)
inactive

For CCCCC(C#N)(Cn1cncn1)c1ccc(Cl)cc1 (stereo not given) , what call appears in the results of this test?
inactive

Which result was noted for this molecule in the test: O=NN1CCOCC1
inactive

Outcome? C[C@]12CCC(=O)C=C1CC[C@@H]1[C@@H]2CC[C@@]2(C)[C@H]1CC[C@]2(C)O
active

Recorded test call requested for c1ccc2c(c1)Nc1ccccc1S2
inactive
